- Test system: KB
- assay.notes: Growth inhibition of human KB cells after 72 hrs by methylene blue dye assay
- Format: functional, cell-based
measurement.type: log10 IC50 (log10 of the value in µM)
Recorded IC50 (log10, µM)

These solved cases illustrate the format of a correct answer.
COc1ccc2c(C(=O)c3cc(OC)c(OC)c(OC)c3)c(OC)ccc2c1 | -1.19
CCCOc1ccc2cc(OC)ccc2c1C(=O)c1cc(OC)c(OC)c(OC)c1 | 0.41
CCOc1ccc2cc(OC)ccc2c1C(=O)c1cc(OC)c(OC)c(OC)c1 | 0.00

Which measured log10 IC50 value corresponds to COc1ccc2c(C(=O)c3cc(OC)c(OC)c(OC)c3)cccc2c1 ?
-1.14

Which measured log10 IC50 value corresponds to CCc1ccc2cc(OC)ccc2c1C(=O)c1cc(OC)c(OC)c(OC)c1 ?
-0.22

Which measured log10 IC50 value corresponds to CCCc1ccc2cc(OC)ccc2c1C(=O)c1cc(OC)c(OC)c(OC)c1 ?
0.00

Which measured log10 IC50 value corresponds to COc1ccc2c(C(=O)c3cc(OC)c(OC)c(OC)c3)c(C)ccc2c1 ?
-0.56

Which measured log10 IC50 value corresponds to COc1ccc2c(C(=O)c3cc(OC)c(OC)c(OC)c3)c(N)ccc2c1 ?
-2.54

Which measured log10 IC50 value corresponds to COc1ccc2cc(C(=O)c3cc(OC)c(OC)c(OC)c3)ccc2c1 ?
-0.29

====

- System: KB
- assay.notes: Growth inhibition of human KB cells after 72 hrs by methylene blue dye assay
- Assay type: functional, cell-based
pIC50: −log10 of the molar value.
Quick list: pIC50 per entry.

These solved cases illustrate the format of a correct answer.
COc1ccc2c(O)c(C(=O)c3cc(OC)c(OC)c(OC)c3)ccc2c1 | < 5.00
COc1ccc2c(C(=O)c3cc(OC)c(OC)c(OC)c3)c(N(C)C)ccc2c1 | < 5.00

Here is the next item to consider.
Which measured pIC50 value corresponds to COc1ccc2c(OC)c(C(=O)c3cc(OC)c(OC)c(OC)c3)ccc2c1 ?
< 5.00
